Exercise: state measured AC50 for each of the molecules provided.
measured-on: FAD-linked sulfhydryl oxidase ALR (Homo sapiens, UniProt P55789)
Sequence (P55789 whole entry): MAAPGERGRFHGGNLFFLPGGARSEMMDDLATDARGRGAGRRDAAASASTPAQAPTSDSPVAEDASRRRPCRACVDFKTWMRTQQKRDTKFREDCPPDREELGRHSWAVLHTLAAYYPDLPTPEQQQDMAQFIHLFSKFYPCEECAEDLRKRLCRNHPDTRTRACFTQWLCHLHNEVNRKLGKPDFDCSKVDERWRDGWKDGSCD
assay-comment: inhibitors of human ALR sulfhydryl oxidase, dose response, biochemical, H2O2 detection, luminescence, cherry-pick (AID 493248)
Calls of active or inactive are those of the source.

Req: Endpoint output: AC50 of O=C(Cc1ccc(Cl)cc1)N1CCN(c2ccccc2)CC1 . Value?
Resp: 17.8 µM (active)

Req: # iterate: COc1ccc(CNc2ncc(-c3cccc([N+](=O)[O-])c3)n2C)c(OC)c1OC
Resp: 0.035 µM (active)

Req: Then this molecule: COc1cccc(-n2cnc3cccc(N)c32)c1
Resp: 24.2 µM (active)

Req: Do the same for COc1ccc(NC2CCCN(C(=O)CCn3cccn3)C2)cc1 (centres undefined) please
Resp: 2.78 µM (active)

Req: Now consider O=C(NN/C=C1\C(=O)N(c2ccc(Cl)cn2)C(=O)c2ccccc21)c1ccncc1 .
Resp: 5.43 µM (active)

Req: Same question, COc1cc(/C=C/c2ccc(O)cc2)cc(OC)c1 this time
Resp: 0.778 µM (active)

Req: Repeat with O=C(O)CCn1cc(C=C2C(=O)NC(=O)NC2=O)c(-c2cc3ccccc3oc2=O)n1
Resp: 0.109 µM (active)

Req: Next: Sc1nnc2n1CCCN2
Resp: 11.1 µM (active)

Req: Item: Cc1ccc(C2Cc3cc(O)c(O)cc3CN2)cc1 (centres undefined)
Resp: 4.2 µM (active)

----------
measured-on: Fatty acid synthase (Homo sapiens, UniProt P49327)
Sequence (P49327 whole entry, the tested form may be a part): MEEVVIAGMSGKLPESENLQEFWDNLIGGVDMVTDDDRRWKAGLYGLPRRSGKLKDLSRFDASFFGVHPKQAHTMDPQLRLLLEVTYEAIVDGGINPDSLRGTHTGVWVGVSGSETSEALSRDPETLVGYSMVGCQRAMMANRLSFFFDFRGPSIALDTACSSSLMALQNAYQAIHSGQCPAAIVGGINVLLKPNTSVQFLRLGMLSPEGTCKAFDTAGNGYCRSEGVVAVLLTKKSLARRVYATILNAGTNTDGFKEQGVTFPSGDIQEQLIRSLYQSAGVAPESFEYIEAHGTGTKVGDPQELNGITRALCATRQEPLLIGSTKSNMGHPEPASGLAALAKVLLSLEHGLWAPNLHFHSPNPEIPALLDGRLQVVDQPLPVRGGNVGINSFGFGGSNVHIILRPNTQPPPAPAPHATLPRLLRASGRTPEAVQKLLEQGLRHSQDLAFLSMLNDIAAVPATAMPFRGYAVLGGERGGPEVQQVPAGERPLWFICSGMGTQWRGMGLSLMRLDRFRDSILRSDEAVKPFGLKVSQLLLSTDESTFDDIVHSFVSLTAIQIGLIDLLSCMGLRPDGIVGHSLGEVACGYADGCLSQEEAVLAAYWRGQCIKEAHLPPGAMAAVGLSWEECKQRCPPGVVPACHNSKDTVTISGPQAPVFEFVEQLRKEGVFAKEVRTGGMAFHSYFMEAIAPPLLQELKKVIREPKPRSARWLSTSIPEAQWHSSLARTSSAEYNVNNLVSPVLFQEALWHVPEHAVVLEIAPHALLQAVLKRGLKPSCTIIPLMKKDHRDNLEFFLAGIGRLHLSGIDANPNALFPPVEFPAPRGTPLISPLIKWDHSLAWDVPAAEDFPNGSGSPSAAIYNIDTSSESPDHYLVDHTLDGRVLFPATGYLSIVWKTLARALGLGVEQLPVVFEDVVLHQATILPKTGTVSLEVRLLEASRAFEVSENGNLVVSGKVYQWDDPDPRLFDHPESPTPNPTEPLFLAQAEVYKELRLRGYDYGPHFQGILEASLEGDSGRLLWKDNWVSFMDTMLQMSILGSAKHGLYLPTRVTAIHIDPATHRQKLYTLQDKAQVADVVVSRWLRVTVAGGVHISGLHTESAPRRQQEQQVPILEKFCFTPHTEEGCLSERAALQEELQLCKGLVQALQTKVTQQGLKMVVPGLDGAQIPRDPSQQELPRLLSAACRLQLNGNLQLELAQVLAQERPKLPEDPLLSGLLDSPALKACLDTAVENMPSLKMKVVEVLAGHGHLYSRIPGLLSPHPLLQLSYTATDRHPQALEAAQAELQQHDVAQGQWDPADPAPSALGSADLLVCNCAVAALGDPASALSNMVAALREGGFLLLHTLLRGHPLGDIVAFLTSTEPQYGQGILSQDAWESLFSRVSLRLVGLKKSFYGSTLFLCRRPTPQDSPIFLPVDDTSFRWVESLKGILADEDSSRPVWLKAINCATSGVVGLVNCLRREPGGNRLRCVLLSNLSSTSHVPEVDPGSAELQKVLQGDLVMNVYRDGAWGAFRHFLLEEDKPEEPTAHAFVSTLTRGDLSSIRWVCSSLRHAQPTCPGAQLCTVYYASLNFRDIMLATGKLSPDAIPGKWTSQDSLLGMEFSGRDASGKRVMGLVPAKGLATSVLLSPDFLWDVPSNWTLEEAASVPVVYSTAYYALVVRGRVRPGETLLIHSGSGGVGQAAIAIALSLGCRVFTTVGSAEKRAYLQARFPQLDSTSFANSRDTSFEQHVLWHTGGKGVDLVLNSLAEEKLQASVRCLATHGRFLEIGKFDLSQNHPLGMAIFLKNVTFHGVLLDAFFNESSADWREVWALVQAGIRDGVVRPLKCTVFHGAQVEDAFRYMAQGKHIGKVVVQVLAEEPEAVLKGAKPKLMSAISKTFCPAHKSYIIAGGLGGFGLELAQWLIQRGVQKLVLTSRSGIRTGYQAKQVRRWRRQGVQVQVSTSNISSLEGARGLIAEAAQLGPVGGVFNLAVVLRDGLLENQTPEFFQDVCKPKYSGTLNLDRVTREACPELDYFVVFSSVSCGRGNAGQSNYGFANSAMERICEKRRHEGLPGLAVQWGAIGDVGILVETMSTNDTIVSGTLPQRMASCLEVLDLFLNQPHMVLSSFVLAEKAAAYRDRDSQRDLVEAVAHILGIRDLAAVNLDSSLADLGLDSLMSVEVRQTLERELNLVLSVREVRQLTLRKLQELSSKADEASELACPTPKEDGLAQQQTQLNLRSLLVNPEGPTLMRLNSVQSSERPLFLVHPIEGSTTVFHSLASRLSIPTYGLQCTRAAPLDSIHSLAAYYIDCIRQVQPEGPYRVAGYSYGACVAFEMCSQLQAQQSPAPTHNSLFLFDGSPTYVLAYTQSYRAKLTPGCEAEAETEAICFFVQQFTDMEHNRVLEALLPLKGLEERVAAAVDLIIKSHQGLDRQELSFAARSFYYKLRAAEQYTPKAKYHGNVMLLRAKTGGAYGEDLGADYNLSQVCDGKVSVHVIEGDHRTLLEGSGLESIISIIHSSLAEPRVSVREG
assay-comment: FAS thioesterase domain inhibitors, dose response, biochemical, kinetic fluorescence intensity (AID 624326);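 also: rate of fluorescence rise from hydrolysis of a fluorogenic O-methyl fluorescein ester substrate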
Type: functional
Calls of active or inactive are those of the source.
Allowed answers: 1.0 (active), 0.0 (inactive)

Req: // outcome(item) with item = O=C(Cc1cccc(C(F)(F)F)c1)OCN1C(=O)c2ccccc2C1=O
Resp: 1.0

Req: Please do the same for Cc1cccc(NC(=O)CNC(=O)COC(=O)c2ccc(C(C)(C)C)cc2)c1C as well.
Resp: 0.0

Req: Lookup CCN(CC)S(=O)(=O)c1ccc(-n2cnc3cc(C)c(C)cc32)nc1
Resp: 1.0

----------
Entries below carry reported AC50 on Cytochrome P450 2C9 (Homo sapiens).
Sequence (P11712 whole entry): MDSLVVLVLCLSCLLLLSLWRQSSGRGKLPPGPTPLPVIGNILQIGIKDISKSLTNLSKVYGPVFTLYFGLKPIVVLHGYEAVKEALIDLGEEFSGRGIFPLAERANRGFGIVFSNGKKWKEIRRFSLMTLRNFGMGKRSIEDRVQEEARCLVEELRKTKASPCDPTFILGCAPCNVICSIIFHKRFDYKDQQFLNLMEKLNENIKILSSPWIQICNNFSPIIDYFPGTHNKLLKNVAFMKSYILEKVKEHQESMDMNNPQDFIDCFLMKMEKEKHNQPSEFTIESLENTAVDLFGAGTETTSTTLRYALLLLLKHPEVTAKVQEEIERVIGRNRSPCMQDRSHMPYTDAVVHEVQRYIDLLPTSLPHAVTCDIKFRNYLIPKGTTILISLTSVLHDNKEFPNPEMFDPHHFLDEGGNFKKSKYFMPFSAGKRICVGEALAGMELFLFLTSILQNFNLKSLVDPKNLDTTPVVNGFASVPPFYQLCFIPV

Req: Please report the recorded AC50 for C/C(=N/NC(=O)c1ccc(NC(=O)c2ccc(F)cc2)cc1)c1ccccc1 .
Resp: 5.01 µM (inconclusive)

Req: And N#Cc1c(Cl)cccc1-n1ccnc1 ?
Resp: 2.82 µM (inconclusive)

Req: Cool, now COCCn1c(=O)c(-c2ccccc2)nc2cnc(OC)nc21
Resp: 20 µM (inconclusive)

Req: Could you do the same for Cc1cc2c(cc1C)NC1=C(O)[C@@H](c3c[nH]c4ccc(COc5ccccc5)cc34)OC1=N2 , please?
Resp: 7.94 µM (inconclusive)

Req: Also check OCCN(/C=N/C1=NN(c2cccc(C(F)(F)F)c2)CC1)CCO
Resp: 0.0224 µM (inconclusive)

Req: Follow-up item: CCCCn1nc2cc(C(=O)NC3CCCc4ccccc43)ccc2c1OCC (stereo unspecified)
Resp: 22.4 µM (inconclusive)

----------
assay-comment: inhibitors of intracellular T. cruzi replication, confirmation, NIH3T3 host cells, beta-gal luminescence (AID 2044);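 also: intracellular parasites grown in NIH/3T3 mouse fibroblasts as host cells; luminescent beta-galactosidase reporter signal from transgenic T. cruzi replicating inside host cells; inhibitors lower the luminescence signal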
Format: functional, cell-based
Calls of active or inactive are those of the source.
property-name: EC50

Req: Looking for the measured EC50 of CN(C)CCCn1c(-c2ccccc2)nc(=S)c2c1CCCC2 , can you help?
Resp: 0.697 µM (active)

Req: Follow-up entry: Clc1ccc(NC2=NCCCS2)cc1Cl
Resp: 1.8 µM (active)

Req: Queued: Fc1ccccc1N1CCN(C2CCCN(Cc3cccc(C(F)(F)F)c3)C2)CC1 (stereo unspecified)
Resp: < 0.1 µM (active)

Req: Follow-up entry: c1ccc(Nc2cccc(Nc3ccccc3)c2)cc1
Resp: 0.937 µM (active)

Req: Lookup COc1ccc(C(=O)c2ccc([N+](=O)[O-])cc2Cl)cc1
Resp: 2.15 µM (active)

Req: Cc1nc(C(=O)Nc2ccc(Cl)cc2)sc1C1(C)CC(c2cccc([N+](=O)[O-])c2)=NO1 (stereo unspecified) , same question.
Resp: 0.545 µM (active)

Req: Then what about the compound COc1c(Cl)cc(Cl)cc1C(=O)Nc1ccc(CN2CCCCC2)cc1 ?
Resp: 3 µM (active)

Req: Can you handle COc1ccccc1NS(=O)(=O)c1cccc(NC(=O)Nc2cccc(Cl)c2)c1 next?
Resp: 2.16 µM (active)

Req: CCN(CC)CCNC(=O)c1cc2c(s1)-c1ccccc1SC2 , same question.
Resp: 2.27 µM (active)

Req: What would you report for CCOc1ccc(NC(=O)c2c(NC(=O)CNCCN3CCOCC3)sc3c2CCC3)cc1 ?
Resp: 1.74 µM (active)

Req: Please do the same for CCN1CCCC1CNC(=O)c1ccc(Sc2ccc(F)cc2)c([N+](=O)[O-])c1 (stereo unspecified) as well.
Resp: 0.879 µM (active)

----------
Assign AC50 to each entry below.
measured-on: Cytochrome P450 2C19 (Homo sapiens, UniProt P33261)
Sequence (P33261 whole entry): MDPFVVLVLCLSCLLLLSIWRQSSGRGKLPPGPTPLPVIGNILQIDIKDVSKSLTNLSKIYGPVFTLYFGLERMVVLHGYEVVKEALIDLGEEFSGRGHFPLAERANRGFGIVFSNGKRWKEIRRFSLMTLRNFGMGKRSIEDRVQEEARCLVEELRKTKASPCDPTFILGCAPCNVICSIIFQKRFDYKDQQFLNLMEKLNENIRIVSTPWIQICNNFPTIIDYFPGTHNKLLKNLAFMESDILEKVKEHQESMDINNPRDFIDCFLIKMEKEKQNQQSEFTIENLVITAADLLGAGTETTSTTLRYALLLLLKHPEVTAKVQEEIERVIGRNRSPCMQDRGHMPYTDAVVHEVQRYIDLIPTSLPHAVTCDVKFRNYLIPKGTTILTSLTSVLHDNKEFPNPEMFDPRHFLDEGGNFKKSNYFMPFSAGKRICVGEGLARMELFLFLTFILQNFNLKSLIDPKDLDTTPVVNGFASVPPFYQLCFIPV
assay-comment: Cytochrome panel assay with activity outcomes. Panel member name: p450-cyp2c19 Compounds with AC50 equal or less than 10 uM are considered active
Type: functional
condition-notes: read-out: AC50

Req: Fill blank: measured AC50 of the compound COc1ncc2nc(C)c(=O)n(-c3ccccc3)c2n1 is ____.
Resp: 39.8 µM (inconclusive)

Req: Another: CCC(C)N1C(=O)C2C(C(=O)Nc3cccc(OC)c3)C3C=CC2(O3)C1C(=O)NC1CCCCC1C (stereo unspecified)
Resp: 28.2 µM (inconclusive)

Req: Next entry: CCc1nnc(NC(=O)CSc2nc3cc4c(cc3cc2C)OCCO4)s1
Resp: 6.31 µM (inconclusive)

Req: Consider next the compound N#C/C(=C(/O)CN1CCCCC1)c1nc(-c2ccc(Cl)cc2)cs1 in the same way.
Resp: 10 µM (inconclusive)

Req: How about C(/C=C/c1ccco1)=N/N1CCN(c2ccccc2)CC1 ?
Resp: 2 µM (inconclusive)

Req: Also CN(C)c1ccc(-c2nc(N(C)C)c3ccccc3n2)cc1 ?
Resp: 39.8 µM (inconclusive)

Req: Please give the result for O=C(C1CCN(S(=O)(=O)N2CCOCC2)CC1)N1CCN(Cc2ccccc2)CC1 too.
Resp: 14.1 µM (inconclusive)

Req: Same lookup for O=C(CCN1C(=O)C2C3C=CC(C3)C2C1=O)Nc1ccc2ncccc2c1 (stereo unspecified) , please.
Resp: 20 µM (inconclusive)

Req: Also O=C(CSc1nc2ccccc2c2ccccc12)c1ccccc1 ?
Resp: 6.31 µM (inconclusive)

Req: Same thing, different compound: COc1ccccc1NC(=O)c1ccc(-n2cccn2)nc1
Resp: 25.1 µM (inconclusive)

Req: Field entry: Cc1onc(-c2ccccc2Cl)c1C(=O)NCC(=O)O
Resp: 39.8 µM (inconclusive)

----------
measured-on: Paired box protein Pax-8 (Homo sapiens, UniProt Q06710)
Sequence (Q06710 whole entry): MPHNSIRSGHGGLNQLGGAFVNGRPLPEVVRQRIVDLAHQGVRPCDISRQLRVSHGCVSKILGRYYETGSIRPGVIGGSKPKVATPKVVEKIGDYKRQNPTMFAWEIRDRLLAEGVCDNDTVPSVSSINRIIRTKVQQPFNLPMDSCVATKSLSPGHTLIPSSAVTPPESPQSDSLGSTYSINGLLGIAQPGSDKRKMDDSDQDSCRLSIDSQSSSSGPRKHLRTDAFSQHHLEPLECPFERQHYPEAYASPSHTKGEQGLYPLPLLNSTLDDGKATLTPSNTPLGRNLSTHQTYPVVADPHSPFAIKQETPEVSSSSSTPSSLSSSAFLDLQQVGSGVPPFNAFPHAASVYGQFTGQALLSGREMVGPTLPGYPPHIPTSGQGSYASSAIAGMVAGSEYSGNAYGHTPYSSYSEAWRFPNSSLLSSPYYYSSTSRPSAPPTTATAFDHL
assay-comment: inhibitors of PAX8-driven TPO luciferase reporter, dose response, RMG-I cells, cherry-pick (AID 687027);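 also: luciferase reporter driven by Pax8 target thyroperoxidase promoter measured by SteadyGlo luminescence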
Assay type: functional, cell-based
The source made the active and inactive calls.
property-name: AC50

Req: What value of AC50 has been reported for the following compound? O=C(CCl)N(Cc1ccccc1)c1ccccc1
Resp: 3.95 µM (active)

Req: // query: O=C1CN(S(=O)(=O)Cc2ccccc2)C[C@@H]2[C@@H](c3ccc(C#Cc4ccc(F)cc4)cc3)[C@@H](CO)N12
Resp: 4.64 µM (active)

Req: Also check COc1ccc(C(=O)c2cc([N+](=O)[O-])ccc2N2CCOCC2)cc1
Resp: 3.21 µM (active)

Req: Repeat with Cc1cccc(N(Cc2cc(O)nc3ccccc23)C(=O)CCl)c1
Resp: 3.93 µM (active)

Req: # repeat for C[C@@H]1CCCCO[C@@H](CN(C)C(=O)Nc2ccc(F)cc2)[C@H](C)CN([C@@H](C)CO)C(=O)c2cc(NC(=O)Nc3ccc(C(F)(F)F)cc3)ccc2O1
Resp: 4.11 µM (active)

Req: Now the same for CCc1ccc(/C=C2\SC(=S)N(CCCC(=O)N(CCO)c3ccccc3)C2=O)cc1
Resp: 7.65 µM (active)

Req: Same lookup for C[C@H]1CCCCO[C@H](CN(C)C(=O)Nc2ccc(C(F)(F)F)cc2)[C@@H](C)CN([C@@H](C)CO)C(=O)c2cc(NC(=O)c3ccncc3)ccc2O1 , please.
Resp: 17.1 µM (active)

Req: N#C[C@H]1[C@@H](c2ccc(C#Cc3ccc(F)cc3)cc2)[C@H](CO)N1C(=O)Nc1ccc(F)cc1 , same question.
Resp: 12.3 µM (active)

Req: Now give it for COc1ccc(C[C@H](N)C(=O)N[C@H]2[C@@H](O)[C@H](n3cnc4c(N(C)C)ncnc43)O[C@@H]2CO)cc1 too.
Resp: 0.546 µM (active)

Req: Quick one: COc1ccc(S(=O)(=O)Nc2ccc3c(c2)C(=O)N([C@@H](C)CO)C[C@H](C)[C@@H](CN(C)C(=O)Nc2ccc(C(F)(F)F)cc2)OCCCC[C@@H](C)O3)cc1
Resp: 9.96 µM (active)

Origin of the recorded values: ChEMBL document CHEMBL1201862
